B1: OAS1 (parent)
chain: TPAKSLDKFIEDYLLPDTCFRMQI

- Variants of: B1
- assay: protein stability index of a GFP-peptide fusion (GPS, HEK-293T) (PSI 1-6); higher = more stable;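 note: lentivirally expressed fusions sorted by FACS into six bins by GFP to DsRed ratio, PSI derived from sequencing read proportions per bin multiplied by bin number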
- condition-summary: c terminus: a fixed tail appended

variant-code	protein stability index
F9G	1.62
D12I	1.4
S5M	2.42
T1L	3.21
C19Q	2.3
P16H	2.28
K4C	2.29
D17R	2.98
C19A	2.88
Y13I	2.54
K8P	3.17
Q23T	2.48
T18I	2.04
Y13A	1.98
D7T	1.25
E11I	2.61
P16R	3.61
L14Q	1.62
P2S	1.69
T1W	2.39
S5N	2.78
C19G	2.44
T18P	1.59
M22I	3.42
F9L	3.52
D12S	2.1
L6S	1.94
F20I	3.6
F9H	2.91
L6P	2.43
Y13Q	1.5
L14R	1.8
R21Q	3.37
T18A	2.25
D7M	2.87
F20P	1.75
Y13V	2.87
S5R	3.08
A3K	2.57
D17A	2.9
E11V	3.93
T1S	2.13
T18D	3.16
P2H	3.76
I24F	2.76
T1H	3.45
